targetOrSystem: ER α-glucosidase GANAB (from Pompe disease Fibroblast lysates) (Homo sapiens, UniProt Q14697)
Construct: Cellular homogenates of Pompe fibroblasts (1 mg mL^−1) were used as protein source for GANAB; endogenous in cells; host or cells: Pompe disease fibroblasts (homogenate)
Sequence (Q14697 29-944): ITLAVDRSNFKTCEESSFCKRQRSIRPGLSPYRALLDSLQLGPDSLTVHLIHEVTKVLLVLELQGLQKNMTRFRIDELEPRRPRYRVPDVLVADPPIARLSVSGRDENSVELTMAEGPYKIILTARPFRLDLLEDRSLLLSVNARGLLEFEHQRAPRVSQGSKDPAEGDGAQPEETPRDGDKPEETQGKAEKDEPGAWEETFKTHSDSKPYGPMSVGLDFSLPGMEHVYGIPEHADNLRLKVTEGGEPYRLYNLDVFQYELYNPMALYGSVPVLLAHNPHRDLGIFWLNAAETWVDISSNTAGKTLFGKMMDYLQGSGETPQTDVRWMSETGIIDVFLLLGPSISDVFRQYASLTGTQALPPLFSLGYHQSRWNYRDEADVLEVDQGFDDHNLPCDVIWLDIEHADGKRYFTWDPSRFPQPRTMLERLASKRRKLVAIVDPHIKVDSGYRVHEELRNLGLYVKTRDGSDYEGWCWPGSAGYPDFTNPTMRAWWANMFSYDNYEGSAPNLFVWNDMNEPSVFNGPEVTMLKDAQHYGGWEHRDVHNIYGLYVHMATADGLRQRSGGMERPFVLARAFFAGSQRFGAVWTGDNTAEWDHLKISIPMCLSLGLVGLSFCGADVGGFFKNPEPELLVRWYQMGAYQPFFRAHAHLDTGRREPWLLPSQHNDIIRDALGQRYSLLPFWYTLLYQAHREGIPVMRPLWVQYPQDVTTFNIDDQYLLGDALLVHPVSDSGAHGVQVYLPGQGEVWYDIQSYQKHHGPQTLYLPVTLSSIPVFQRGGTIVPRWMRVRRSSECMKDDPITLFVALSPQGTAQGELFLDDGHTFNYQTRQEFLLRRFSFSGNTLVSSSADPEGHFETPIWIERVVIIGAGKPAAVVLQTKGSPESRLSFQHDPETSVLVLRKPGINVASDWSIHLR
Sequence (P14314 15-528 partner): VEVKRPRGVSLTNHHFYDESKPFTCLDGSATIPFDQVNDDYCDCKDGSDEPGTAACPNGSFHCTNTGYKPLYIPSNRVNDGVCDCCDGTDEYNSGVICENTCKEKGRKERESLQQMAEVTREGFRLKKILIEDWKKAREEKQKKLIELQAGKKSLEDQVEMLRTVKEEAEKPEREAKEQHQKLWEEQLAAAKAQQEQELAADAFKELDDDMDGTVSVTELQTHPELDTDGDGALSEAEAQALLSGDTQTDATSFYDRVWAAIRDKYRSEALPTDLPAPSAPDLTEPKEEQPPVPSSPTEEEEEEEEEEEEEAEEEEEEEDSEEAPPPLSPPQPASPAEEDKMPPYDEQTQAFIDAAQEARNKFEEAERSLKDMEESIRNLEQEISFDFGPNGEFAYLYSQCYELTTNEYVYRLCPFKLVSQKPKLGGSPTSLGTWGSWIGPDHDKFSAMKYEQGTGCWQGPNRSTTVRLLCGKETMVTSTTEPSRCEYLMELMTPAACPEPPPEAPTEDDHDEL
assayMethodText: fluorogenic substrate (4MU-α-D-glucopyranoside) assay on GANAB in Pompe fibroblast homogenates;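 also: inhibitor preincubated 30 min at 37 °C with homogenate, then GANAB activity read after 2 h with 3.0 mM fluorogenic substrate in McIlvaine buffer containing 0.1% BSA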
Assay type: biochemical
runConditions: Table S2; 4-MU alpha glucoside substrate; listed as 23; read-out: IC50 on GANAB
readoutName: IC50

Answer with reported IC50 of `CCCCCCCOCCCCCN1C[C@H](O)[C@@H](O)[C@H](O)[C@H]1CO` 7.2 µM

====

targetOrSystem: human recombinant lysosomal α-glucosidase GAA (Myozyme) (Homo sapiens, UniProt P10253)
Construct: purchased Genzyme
assayMethodText: fluorogenic substrate (4MU-α-D-glucopyranoside) assay on rhGAA
Type: biochemical
runConditions: Table S2; 4-MU alpha glucoside substrate; read-out: IC50 on rhGAA
readoutName: IC50 (nM)
Give the quantity in nM, number only.

For orientation, consider the following solved cases.
{"columns": ["compound", "IC50, nM"],
 "data": [
  ["OC[C@@H]1[C@@H](O)[C@H](O)[C@@H](O)CN1CCCCCOCc1ccc(-c2ccccc2)c(C(F)(F)F)c1", 16],
  ["OC[C@@H]1[C@@H](O)[C@H](O)[C@@H](O)CN1CCCCCOCc1ccc(-c2ccc3c(c2)OCO3)cc1", 140]
]}

Lab note: human recombinant lysosomal α-glucosidase GAA (Myozyme) (Homo sapiens, UniProt P10253) assay, enter IC50 for OC[C@@H]1[C@@H](O)[C@H](O)[C@@H](O)CN1CCCCCOCc1ccc(-c2ccccc2)cc1 [#ID 343] here 43

Fill: IC50 (human recombinant lysosomal α-glucosidase GAA (Myozyme) (Homo sapiens, UniProt P10253)) for this compound `OC[C@@H]1[C@@H](O)[C@H](O)[C@@H](O)CN1CCCCCOCc1ccc(-c2ccc(F)nc2)cc1` 80

Look up human recombinant lysosomal α-glucosidase GAA (Myozyme) (Homo sapiens, UniProt P10253) data: IC50 of `OC[C@@H]1[C@@H](O)[C@H](O)[C@@H](O)CN1CCCCCCOCC12CC3CC(CC(C3)C1)C2` , then report it. 290

Give the observed IC50 of `OC[C@H]1N[C@H](C/C=C/CCOCC23CC4CC(CC(C4)C2)C3)[C@H](O)[C@@H](O)[C@@H]1O` for human recombinant lysosomal α-glucosidase GAA (Myozyme) (Homo sapiens, UniProt P10253). 450

Fetch value of IC50 on human recombinant lysosomal α-glucosidase GAA (Myozyme) (Homo sapiens, UniProt P10253) for `OC[C@@H]1[C@@H](O)[C@H](O)[C@@H](O)CN1CCCCCOCc1ccc(-c2ccc3c(c2)OCCCO3)cc1` . 37

Provide measured IC50 on human recombinant lysosomal α-glucosidase GAA (Myozyme) (Homo sapiens, UniProt P10253) for `OC[C@@H]1[C@@H](O)[C@H](O)[C@@H](O)CN1CCCCCOCc1ccccc1-c1ccccc1` please. 100

Provide IC50, recorded with human recombinant lysosomal α-glucosidase GAA (Myozyme) (Homo sapiens, UniProt P10253), of `OC[C@@H]1[C@@H](O)[C@H](O)[C@@H](O)CN1CCCCCOCCC12CC3CC(CC(C3)C1)C2` 430
